Molecular target: Fuc(a1-2)[Gal(a1-3)]Gal(b1-3)GlcNAc(b1-2)Man(a1-3)[Fuc(a1-2)[Gal(a1-3)]Gal(b1-3)GlcNAc(b1-2)Man(a1-6)]Man(b1-4)GlcNAc(b1-4)GlcNAc
Assay: glycan array binding signal (z-score within array); higher = stronger binding
Conditions: glycan notation: IUPAC condensed, linker removed
The entries come from a sample that favours the strongest signals as a whole.
measureName: glycan array binding signal (z-score)
Please respond with just the number, no unit label.

The binder listed as Clec49 (Caenorhabditis elegans) (protein) MTRLTLLLFGLLGAATAQTCNTGGIYNEQFNRCYQYFTAPAQFSFAEQQCNLLGGHLASVQNGQENALLQSNAANSFKRSNYSDYWIGATDLETSGTWKWTDPSVTFDYSNWQLGEPQSGSDCAIQDKGDGTWSAIGCTSYRPYVCVTPVIMTATCPPITTPIPTTCPTPAPCPIKQCVPSCDQGWTYFSPTDFCYRVYHGEKFNDAEASCVLLGGHLASIHSLTENTFVNNIASCGIKEGKYEHLAWIGMRKVGQDWVWTDGTPSDYFNWAPKQPDNPKKELCVQTAPDLSHDKWYENWNNLECNEVMRAYICKKASIHN has a reported glycan array binding signal (z-score) of 2.31
